// data source = PubChem BioAssay (NCI)

For each record, write down the corresponding GI50.
System: HCT-116 colon
Test: NCI tumour cell line growth inhibition, 48 h

Recorded GI50, per entry:
COC1C(OC(=O)/C=C/C=C/C=C/C=C/C(=O)O)CCC2(CO2)C1C1(C)OC1CC=C(C)C (configuration not stated)    0.12 µM
CCCN1CCC(Oc2cc(Nc3nc(Nc4cccc(F)c4C(N)=O)c4cc[nH]c4n3)c(OC)cc2Cl)CC1    2.16 µM
CC(C)Cn1cnc2c(N)nc3ccccc3c21    19.8 µM
c1ccc2[nH]c(-c3ccc(Nc4nc(N5CCCC5)nc5[nH]ncc45)cc3)nc2c1    0.203 µM
Cc1ccc(NC(=O)c2ccoc2)cc1-c1ccc(C(=O)NCC2CC2)cc1    > 25 µM
COc1cc2c(cc1OCCCCCOc1ccc(-c3nc4ccccc4s3)cc1)N=C[C@@H]1CCCN1C2=O    1.23 µM
COc1cc(-c2csc(NC(=O)Nc3ccc(Cl)cc3)n2)cc(OC)c1OC    2.83 µM
Nc1nc(N)c2cc(S(=O)(=O)c3cccc(C(F)(F)F)c3)ccc2n1    1.47 µM

Parameters: items (list). Returns: GI50 for each item.
1. COc1ccc2c(c1[N+](=O)[O-])CC[C@@H]1[C@@H]2CC[C@]2(C)C(=O)CC[C@@H]12
2. C/C(=C1\C(=O)Nc2ccccc21)c1cccc(/C(C)=C2/C(=O)Nc3ccccc32)n1
3. CCn1c(-c2nonc2N)nc2cnc(Oc3cccc(NC(=O)c4ccc(OCCN5CCOCC5)cc4)c3)cc21
4. N#CSc1c[nH]c2ccc(/C=C/C(=O)/C=C(O)/C=C/c3ccc4[nH]cc(SC#N)c4c3)cc12

Output:
["> 1000 µM", "9.93 µM", "1.81 µM", "0.296 µM"]
